tested on: Green Peach Aphid (Myzus persicae, MYZUPE); assay: Bioassay 1: Green Peach Aphid foliar spray on cabbage seedlings; assay type: in vivo; settings: infested cabbage seedlings sprayed until runoff; live aphids counted three days after treatment; Abbott-corrected percent control; mean of replicates
// assign T if Myzus persicae Mean LC50 PPM falls strictly below 0.3 PPM, else F (ties count as F)

Does the reported Myzus persicae Mean LC50 PPM of CC(C(=O)Nc1cn(-c2cccnc2)nc1Cl)S(C)(=O)=O (centres unmarked) stay below 0.3 PPM?
T

Does the reported Myzus persicae Mean LC50 PPM of CS(=O)(=O)CC(=O)Nc1cn(-c2cccnc2)nc1Cl stay below 0.3 PPM?
T

Does the reported Myzus persicae Mean LC50 PPM of CC(C(=O)N(C)c1cn(-c2cccnc2)nc1Cl)S(C)(=O)=O (centres unmarked) stay below 0.3 PPM?
T

Does the reported Myzus persicae Mean LC50 PPM of CC(C)(C(=O)Nc1cn(-c2cccnc2)nc1Cl)S(C)(=O)=O stay below 0.3 PPM?
F

Does the reported Myzus persicae Mean LC50 PPM of CN(C(=O)CS(C)(=O)=O)c1cn(-c2cccnc2)nc1Cl stay below 0.3 PPM?
F
